All values here come from patent US7135466B2.

Target: c-kit (Homo sapiens, UniProt P10721)
Construct: MO7e (human megakaryocytic leukemia cell line) which had been arrested for 20 hr; endogenous in cells; host or cells: MO7e human megakaryocytic leukemia cell line
Sequence (P10721 26-976): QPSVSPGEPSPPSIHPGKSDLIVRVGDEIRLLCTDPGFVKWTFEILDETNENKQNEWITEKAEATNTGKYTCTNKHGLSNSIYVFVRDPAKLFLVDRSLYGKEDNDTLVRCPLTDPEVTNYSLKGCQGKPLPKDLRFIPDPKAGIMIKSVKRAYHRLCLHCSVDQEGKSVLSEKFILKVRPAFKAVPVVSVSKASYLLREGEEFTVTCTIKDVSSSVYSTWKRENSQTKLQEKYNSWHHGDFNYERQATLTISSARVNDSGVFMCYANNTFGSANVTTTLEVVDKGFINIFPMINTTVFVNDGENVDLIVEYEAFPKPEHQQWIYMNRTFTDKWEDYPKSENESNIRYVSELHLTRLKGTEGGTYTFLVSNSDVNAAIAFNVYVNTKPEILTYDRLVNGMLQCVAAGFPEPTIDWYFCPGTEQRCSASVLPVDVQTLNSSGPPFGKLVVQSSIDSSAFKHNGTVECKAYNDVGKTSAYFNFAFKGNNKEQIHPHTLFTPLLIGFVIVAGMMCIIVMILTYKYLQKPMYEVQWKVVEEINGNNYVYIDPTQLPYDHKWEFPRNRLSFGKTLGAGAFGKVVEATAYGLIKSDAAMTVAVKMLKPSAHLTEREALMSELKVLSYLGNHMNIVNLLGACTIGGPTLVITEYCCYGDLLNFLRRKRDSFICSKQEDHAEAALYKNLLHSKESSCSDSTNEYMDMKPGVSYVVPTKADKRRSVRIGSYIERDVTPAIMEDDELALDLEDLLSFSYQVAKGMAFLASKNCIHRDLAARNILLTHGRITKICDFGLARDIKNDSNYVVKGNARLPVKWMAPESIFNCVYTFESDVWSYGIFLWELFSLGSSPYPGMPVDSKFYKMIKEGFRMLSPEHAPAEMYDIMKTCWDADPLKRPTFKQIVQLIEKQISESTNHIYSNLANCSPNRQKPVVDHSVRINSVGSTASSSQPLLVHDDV
Test: Inhibitory activity against c-kit autophosphorylation (MO7e cells, h-SCF)
Format: cell-based
Details: MO7e cells, 50 ng/ml h-SCF; read-out: c-kit IC50
Procedure: Inhibitory Activity Against c-kit Autophosphorylation MO7e (human megakaryocytic leukemia cell line) which had been arrested for 20 hr was seeded into 96 well plates at an amount of 2×10^5 per well. A solution of a test compound in DMSO was added, and a reaction was then allowed to proceed for one hr. Thereafter, the cells were stimulated by 50 ng/ml of h-SCF for 5 min, followed by replacement with lysate buffer to solubilize the cells. […]
RESULT TYPE: pIC50
Answers are plain numbers, as −log10 of the molar value.

COc1cc2nccc(Oc3ccc(NC(=S)NCCCn4ccnc4)c(C)c3C)c2cc1OC [Example 543] = 6.48

Then this molecule:
Incoming: Please tell me: pIC50 of COc1cc2ncnc(Oc3ccc(NC(=O)NC4CCN(Cc5ccccc5C)C4)cc3)c2cc1OC (stereo not shown) [Example 569] , system c-kit (Homo sapiens, UniProt P10721)?
Outgoing: 6.77
